# unique peptide counts per record follows
- TEST TARGET: GS-TAP-tagged Optn (human) (UniProt Q96CV9)
- Sequence (Q96CV9 whole entry E322K): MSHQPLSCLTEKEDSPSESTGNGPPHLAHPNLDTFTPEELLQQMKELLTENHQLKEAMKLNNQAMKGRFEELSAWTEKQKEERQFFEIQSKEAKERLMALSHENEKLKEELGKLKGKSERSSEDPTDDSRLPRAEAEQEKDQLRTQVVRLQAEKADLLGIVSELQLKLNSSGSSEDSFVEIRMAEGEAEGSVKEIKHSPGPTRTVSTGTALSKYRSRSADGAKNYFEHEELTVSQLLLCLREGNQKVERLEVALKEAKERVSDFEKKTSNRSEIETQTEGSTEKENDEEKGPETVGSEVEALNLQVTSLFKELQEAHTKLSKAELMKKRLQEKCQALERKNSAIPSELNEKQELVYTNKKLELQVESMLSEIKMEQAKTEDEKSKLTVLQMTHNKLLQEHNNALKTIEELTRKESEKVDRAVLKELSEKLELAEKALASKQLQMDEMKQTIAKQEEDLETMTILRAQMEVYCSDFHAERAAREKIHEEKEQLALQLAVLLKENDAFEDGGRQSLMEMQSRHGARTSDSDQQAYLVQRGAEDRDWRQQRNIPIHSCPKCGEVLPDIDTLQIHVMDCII
- ASSAY INFO: TAP of GS-tagged Optn from HEK-293 cells, LC-MSMS
Lab note: jot down the number only; don't add units.

Use these answered entries as a reference point.
- RAS-RELATED PROTEIN RAB-35. (from UniProt Q15286 1-201): 3
- PRKC APOPTOSIS WT1 REGULATOR PROTEIN. (from UniProt Q96IZ0 1-340): 2
- TROPOMYOSIN 1 ALPHA CHAIN ISOFORM 7. (from UniProt P09493 1-284): 5

Request - read-out unique peptide counts | tested on GS-TAP-tagged Optn (human) (UniProt Q96CV9) | substance FILAMIN 1. (from UniProt P21333 2-2647)
10

Next: DYNEIN LIGHT CHAIN 1, CYTOPLASMIC. (from UniProt P63167 1-89)
5

Next: STRESS-70 PROTEIN, MITOCHONDRIAL PRECURSOR. (from UniProt P38646 47-679)
5

Next: PEROX1REDOXIN-1. (from UniProt Q06830 2-199) (enzyme)
2

---

- TEST TARGET: GS-TAP-tagged Optn (human)
- ASSAY INFO: TAP of GS-tagged Optn from HEK-293 cells, LC-MSMS
# unique peptide counts per record follows
Lab note: jot down the number only; don't add units.

Use these answered entries as a reference point.
* ISOFORM SNAP-23A OF SYNAPTOSOMAL-ASSOCIATED PROTEIN 23. (from UniProt O00161 1-211) | 2
* MYOSIN, LIGHT CHAIN 6, ALKALI, SMOOTH MUSCLE AND NON-MUSCLE ISOFORM 1. | 5

# query: unique peptide counts of entry ISOFORM 1 OF MYOSIN PHOSPHATASE RHO-… PROTEIN. (from UniProt Q6WCQ1 2-1025)
17

Next: DESMOGLEIN 2 PREPROPROTEIN. (from UniProt Q14126 50-1118)
2

---

- TEST TARGET: GS-TAP-tagged Optn (human) (UniProt Q96CV9)
- ASSAY INFO: TAP of GS-tagged Optn from HEK-293 cells, LC-MSMS
PROPERTY: unique peptide counts
Lab note: jot down the number only; don't add units.

Use these answered entries as a reference point.
- ISOFORM 2 OF ANKYCORBIN. (from UniProt Q9P0K7 1-983): 11
- 285 KDA PROTEIN. (from UniProt Q13813 1-2472): 7
- ISOFORM LONG OF SPECTRIN BETA CHAIN, BRAIN 1. (from UniProt Q01082 2-2364): 2

# query: unique peptide counts of entry ELONGATION FACTOR 1-ALPHA 2. (from UniProt Q05639 2-463)
3

Next: COMPLEMENT COMPONENT 1 Q SUBCOMPONENT-BINDING PROTEIN, MITOCHONDRIAL PRECURSOR. (from UniProt Q07021 74-282)
5

Next: ALPHA-ACTININ-4. (from UniProt O43707 1-911)
2

---

- TEST TARGET: GS-TAP-tagged Optn (human)
- ASSAY INFO: TAP of GS-tagged Optn from HEK-293 cells, LC-MSMS
PROPERTY: sequence coverage
Lab note: jot down the number only; don't add units.

* ISOFORM 1 OF MYOSIN PHOSPHATASE RHO-… PROTEIN. (from UniProt Q6WCQ1 2-1025) | 0.21
* GALPHAI2 PROTEIN. (from UniProt P04899 2-355) | 0.15

# query: sequence coverage of entry ISOFORM 1 OF HEAT SHOCK COGNATE 71 KDA PROTEIN. (from UniProt P11142 2-646)
0.24

---

- TEST TARGET: GS-TAP-tagged Optn (human)
- ASSAY INFO: TAP of GS-tagged Optn from HEK-293 cells, LC-MSMS
# unique peptide counts per record follows
Lab note: jot down the number only; don't add units.

Use these answered entries as a reference point.
- CORONIN-1C. (from UniProt Q9ULV4 1-474): 13
- TROPOMYOSIN 4. (from UniProt P67936 2-248): 6
- GALPHAI2 PROTEIN. (from UniProt P04899 2-355): 5

# query: unique peptide counts of entry GUANINE NUCLEOTIDE-BINDING PROTEIN G(I)/G(S)/G(T) SUBUNIT BETA 2. (from UniProt P62879 2-340)
2

Next: ISOFORM 1 OF MYOSIN IB. (from UniProt O43795 1-1136)
3

From: patent US20140336126A1
